// provenance: PubChem BioAssay AID1159580

- PROCEDURE_DETAILS: chemical genetic growth profiling, strain panel (AID 1159580);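 also: tested at 20 µM; growth read once vehicle control cultures reached saturation at 30 °C; 1 = growth at the plate median or of vehicle wells; lower values mean less growth of the strain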
- MEASUREMENT_PARAMETERS: S. cerevisiae deletion strains, growth OD, locus YBR171W, strain sec66
Out of some 5,500 compounds screened, about 2,000 (36%) were called active. Another 18% or so got no clear call; they are omitted. Rule as the data show it: active = normalized growth mostly below about 0.91 (no sharp cut-off); inconclusive = no clear call, values can overlap the other calls; inactive = mostly above about 0.92. The list shows a part of the results.
Outcomes: yes (1) (active), no (0) (inactive)

MOLECULE	ASSIGNED_CLASS
N=c1ccn2c(n1)OC1C(O)C(CO)OC12 (configuration not stated)	no (0)
CN1CC(=O)N=C1N	no (0)
O=C(NC(=O)c1ccccc1Cl)Nc1ccc(OC(F)(F)F)cc1	no (0)
CC[C@@]1(O)C[C@H](O[C@H]2C[C@H](N(C)C)[C@H](O)[C@H](C)O2)c2c(cc3c(c2O)C(=O)c2c(O)cccc2C3=O)[C@H]1C(=O)OC	no (0)
O=C(O)c1cc2cc(F)ccc2[nH]1	no (0)
OCCc1ccccc1	no (0)
CC[C@@]1(O)C[C@H](O)c2c(cc3c(c2O)C(=O)c2c(O)ccc(O)c2C3=O)[C@H]1C(=O)OC	no (0)
CC[C@@H](C(=O)C(C)[C@@H](O)[C@H](C)CCc1ccc(C)c(O)c1C(=O)O)C1OC(CC)(C2CC[C@](O)(CC)[C@H](C)O2)C[C@@H]1C (some centres not stated)	yes (1)
O=C1C(Cl)=C(Cl)C(=O)C(Cl)=C1Cl	no (0)
Oc1ccc2c(c1)O[C@H](c1ccc(O)c(O)c1)[C@@H](O)C2	no (0)
O=S(=O)(O)c1cc(N=C=S)ccc1/C=C/c1ccc(N=C=S)cc1S(=O)(=O)O	no (0)
CCCCNC(=O)NS(=O)(=O)c1ccc(C)cc1	no (0)
Nc1nc(=S)c2[nH]cnc2[nH]1	no (0)
CC[C@@]1(O)C[C@H](O[C@H]2C[C@H](N(C)C)[C@H](O)[C@H](C)O2)c2c(cc3c(c2O)C(=O)c2c(O)ccc(O)c2C3=O)[C@H]1C(=O)OC	no (0)
NCCS(=O)(=O)O	no (0)
COc1ccc([C@H]2Oc3c(I)c(OC)cc(OC)c3C[C@@H]2O)cc1OC	no (0)
COC(=O)[C@@H]1OC(=O)C2OC23[C@@]1(C)CCC1[C@]2(C)C(C[C@H](O)[C@]13C)C(C)(C)[C@H](OC(C)=O)C[C@@H]2OC(C)=O (some centres not stated)	no (0)
Oc1cc(O)c2c(c1)O[C@H](c1cc(O)c(O)c(O)c1)[C@H](O)C2	no (0)
COc1ccc(CN(CCN(C)C)c2ccccn2)cc1	no (0)
Cc1ccc(S(=O)(=O)NC(=O)NN2CCCCCC2)cc1	no (0)
CN(C)CCN(Cc1cccs1)c1ccccn1	no (0)
NS(=O)(=O)c1cc2c(cc1Cl)NC=NS2(=O)=O	no (0)

###

- PROCEDURE_DETAILS: chemical genetic growth profiling, strain panel (AID 1159580);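 also: tested at 20 µM; growth read once vehicle control cultures reached saturation at 30 °C; 1 = growth at the plate median or of vehicle wells; lower values mean less growth of the strain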
- MEASUREMENT_PARAMETERS: S. cerevisiae deletion strains, growth OD, locus YML124C, strain tub3
In all, about 5,500 compounds went through this assay and about 2,000 (36%) were called active. About 18% were inconclusive and are not listed. Cut-off read from the data, not from the text of the source: active = normalized growth mostly below about 0.91 (no sharp cut-off); inconclusive = no clear call, values can overlap the other calls; inactive = mostly above about 0.92. This is one part of the list.
Outcomes: 1 (yes) = active, 0 (no) = inactive

COMPOUND	ASSIGNED_CLASS
CC[C@H]1OC(=O)[C@H](C)[C@@H](O[C@H]2C[C@@](C)(OC)[C@@H](O)[C@H](C)O2)[C@H](C)[C@@H](O[C@@H]2O[C@H](C)C[C@H](N(C)C)[C@H]2O)[C@](C)(OC)C[C@@H](C)C(=O)[C@H](C)[C@@H](O)[C@]1(C)O	0 (no)
COc1ccccc1-c1coc2cc(O)ccc2c1=O	0 (no)
COc1ccc(CN(CCN(C)C)c2ccccn2)cc1	0 (no)
CC[C@@]1(O)C[C@H](O)c2c(cc3c(c2O)C(=O)c2c(O)ccc(O)c2C3=O)[C@H]1C(=O)OC	1 (yes)
COc1ccc(-c2coc3cc(O)ccc3c2=O)cc1	0 (no)
COc1ccc(-c2coc3cc(O)ccc3c2=O)c(OC)c1O	0 (no)
CN(C)CCN(Cc1cccs1)c1ccccn1	0 (no)
COc1ccc(-c2coc3cc(O)ccc3c2=O)c(OC)c1	0 (no)
CC[C@@]1(O)C[C@H](O[C@H]2C[C@H](N(C)C)[C@H](O)[C@H](C)O2)c2c(cc3c(c2O)C(=O)c2c(O)ccc(O)c2C3=O)[C@H]1C(=O)OC	1 (yes)
C[C@@H]1CC(Cl)CC[C@H]1C(=O)OC(C)(C)C (stereo not given in full)	0 (no)
